Target: RSV prefusion F (preF), subtype A (respiratory syncytial virus, subtype A, UniProt P03420 26-513)
Assay: BLI, IgG
Assign Kd to each entry below.
Field: value (include unit after the number)

ADI-20993 (antibody, V domains shown) VH: EVQLVESGGGVVQPGRSLRLTCAASGFPFSSYAMHWVRQAPGKGLEWVAVTWYDGPNRDYADSVKGRFTVSRDNSKNTLYLQMTSLRADDTAVYYCARRGSWGSFDYWGQGTLVTVSS VL: DIVMTQSPLSLSATPGEPASISCRPSQSLLHSNGYNYLEWYLQKPGQSPQLLIYLGSNRASGVPDRFSGGGSGTDFTLRISRVEADDVGVYYCMQASQTPYTFGQGTKVEIK : 1.38 nM
ADI-21048 (antibody, V domains shown) VH: EVQLVESGAEVKKPGASVKVSCKASGYTFSSHAISWVRQAPGHGLEWMGWISVFNGNTNYAQKFQGRVTMTTDTSTSTAYMELRSLRSDDAAVYYCAREVIGVGEFYFDYWGQGTLVTVSS VL: QSVLTQPPSVSVAPGQTARITCGGNNIGSKSVHWYQQKAGQAPVLVVYDDSDRPSGIPERFLGSNSGNTATLTISRVEAGDEADYYCQVWDSSGDFHVFGTGTKVTVL : 0.111 nM
ADI-20973 (antibody, V domains shown) VH: EVQLLESGGGLVKPAGSLRLSCAASGFSFSSYYMNWIRQAPGKGLEWVSDISGGSSYTNYADSVKGRFTVSRDNAKNSVYLQMNSLRGEDTAVYYCARGASTAATYTPTFDYWGQGILVTVSS VL: QPVLTQPPSVSGAPGQRVTISCTGSSSNIGAGYDVHWYQQLPGTAPKLLMFGNNNRPSGVPDRFSGSKSGTSASLAITGLRPEDEADYYCQSYDRRLTVVFGGGTKLTVL : 0.308 nM
ADI-21045 (antibody, V domains shown) VH: EVQLVESGGGLVKPGGSLRLSCLASGFKFRSYSMNWVRQAPGTGLVWVASISASSSFIFYADSLKGRFTISRDNDKNSLYLQMNSLTVEDTAVYYCVRDMSGISSGGKTFDYWGQGTLVTVSS VL: QSVLTQPPSVSGAPGQRVTISCTGSSSNLGAGYDVQWYQQLPGTAPKLLIYGNNNRPSGVPDRFSGSKSGTSASLAITGLRAEDEADYYCQSYDTSPVFGGGTKLTVL : 0.456 nM

Okay, next one:
QUERY: Any idea what Kd was measured for ADI-20964 (antibody, V domains shown) VH: QVQLVQSGAEVKKPGASVKVSCKASGYTFTHYGISWVRQAPGQGLEWMGWISAYNGNTNYAQKLQGRVTMTTDTSTSTAYMEVRSLRYDDTAVYYCARDVPVEAATSPEFWGQGTLVTVSS VL: DIVMTQTPLSLPVTLGQPASISCRSSQSLVYSDGNTYLSWFQQRPGQSPRRLIYKVSNRDSGVPNRFSGSGSGTDFTLKISRVEAEDVGVYYCVQNTHWPAYTFGQGTKVEIK ?
RESULT: 0.36 nM
